target: UniProtKB P54098
Sequence (P54098 whole entry): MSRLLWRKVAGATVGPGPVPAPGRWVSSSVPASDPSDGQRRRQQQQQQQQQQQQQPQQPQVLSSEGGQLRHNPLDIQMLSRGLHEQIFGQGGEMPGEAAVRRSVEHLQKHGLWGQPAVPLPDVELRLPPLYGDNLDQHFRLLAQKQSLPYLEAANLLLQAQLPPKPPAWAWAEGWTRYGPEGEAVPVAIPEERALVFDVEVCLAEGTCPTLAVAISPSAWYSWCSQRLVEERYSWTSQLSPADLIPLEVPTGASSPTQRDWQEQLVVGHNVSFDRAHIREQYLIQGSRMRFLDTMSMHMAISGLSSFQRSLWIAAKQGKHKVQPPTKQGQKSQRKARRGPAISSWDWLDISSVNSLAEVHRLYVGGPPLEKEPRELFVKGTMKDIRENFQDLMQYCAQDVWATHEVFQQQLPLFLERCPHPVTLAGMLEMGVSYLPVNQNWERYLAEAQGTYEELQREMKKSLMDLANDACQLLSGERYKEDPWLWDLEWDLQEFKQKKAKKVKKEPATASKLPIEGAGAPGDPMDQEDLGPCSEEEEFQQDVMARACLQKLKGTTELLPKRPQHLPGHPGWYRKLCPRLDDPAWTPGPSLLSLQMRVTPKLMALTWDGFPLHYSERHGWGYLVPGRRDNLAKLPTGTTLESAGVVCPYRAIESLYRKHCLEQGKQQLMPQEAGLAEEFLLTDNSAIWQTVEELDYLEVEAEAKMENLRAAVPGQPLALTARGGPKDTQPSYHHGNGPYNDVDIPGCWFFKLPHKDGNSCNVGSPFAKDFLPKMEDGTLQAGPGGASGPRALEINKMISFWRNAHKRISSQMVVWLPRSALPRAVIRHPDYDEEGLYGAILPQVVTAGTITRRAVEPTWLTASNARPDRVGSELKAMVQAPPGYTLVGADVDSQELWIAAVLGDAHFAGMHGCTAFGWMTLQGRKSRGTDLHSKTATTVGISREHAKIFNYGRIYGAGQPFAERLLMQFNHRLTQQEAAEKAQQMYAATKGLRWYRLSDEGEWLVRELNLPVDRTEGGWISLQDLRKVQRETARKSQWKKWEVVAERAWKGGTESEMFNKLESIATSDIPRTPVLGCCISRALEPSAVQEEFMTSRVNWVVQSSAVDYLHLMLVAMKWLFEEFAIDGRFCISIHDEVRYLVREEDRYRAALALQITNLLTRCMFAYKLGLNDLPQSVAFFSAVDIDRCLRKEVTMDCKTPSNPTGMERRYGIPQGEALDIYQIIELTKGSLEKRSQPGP
property.measured: IC50

# input Identify the measured IC50 of Nc1ncnc2c1ncn2[C@@H]1OC[C@](F)(COP(=O)(O)OP(=O)(O)OP(=O)(O)O)[C@H]1CO [Compound 38] for UniProtKB P54098.
# output > 100 µM

====

test: Cell cytotoxicity against HepG2 cells (CellTiter-Glo, 96 h); format: cell-based, human; conditions: human
Listing of entries alongside the reported CC50 at 96 h.

• C=C1[C@H](CO)[C@@H](O)C[C@@H]1n1cnc2c(=O)[nH]c(N)nc21 [Compound 1, entecavir, reference compound] = > 100 µM
• Nc1ncnc2c1ncn2[C@@H]1OC[C@](F)(CO)[C@H]1CO [Compound 5] = > 10 µM

// next item, CC50 at 96 h requested
# input Query (compound): Nc1ncnc2c1ncn2[C@@H]1OC[C@](F)(CO)[C@H]1O [Compound 4] ; field requested: CC50 at 96 h
# output > 100 µM

====

system: VSV-G pseudotyped HIV NL4-3; assay: microbe, parasite or virus in culture; assay type: cell-based; conditions: Human immunodeficiency virus 1, NL43, CCRF-CEM, 72 h, read-out: HIV EC50
pEC50: −log10 of the molar value.
property.measured: pEC50

Below: 3 molecules and their reported pEC50.
* C=C1[C@H](CO)[C@@H](O)C[C@@H]1n1cnc2c(=O)[nH]c(N)nc21 [Compound 1, entecavir, reference compound] | 5.91
* Nc1ncnc2c1ncn2[C@@H]1OC[C@](F)(CO)[C@H]1CO [Compound 5] | < 4.48
* CC(C)OC(=O)[C@H](C)NP(=O)(OC[C@@]1(F)CO[C@@H](n2cnc3c(N)ncnc32)[C@@H]1O)Oc1ccccc1 (stereo partly drawn) [Compound 24] | < 4.48

# input Query (molecule): CC(C)OC(=O)[C@H](C)NP(=O)(OC[C@@]1(F)CO[C@@H](n2cnc3c(N)ncnc32)[C@@H]1CO)Oc1ccccc1 (stereo partly drawn) [Compound 39] ; field requested: pEC50
# output 6.52

# input Query (molecule): Nc1ncnc2c1ncn2[C@@H]1OC[C@](F)(CO)[C@H]1O [Compound 4] ; field requested: pEC50
# output < 4.48

# input Query (molecule): C=C1[C@H](COP(=O)(N[C@@H](C)C(=O)OC(C)C)Oc2ccccc2)[C@@H](O)C[C@@H]1n1cnc2c(=O)[nH]c(N)nc21 (stereo partly drawn) [Compound 1-PD, reference compound] ; field requested: pEC50
# output < 4.70

====

Target: human DNA polymerase α (Homo sapiens, UniProt P09884)
Sequence (P09884 1-1462): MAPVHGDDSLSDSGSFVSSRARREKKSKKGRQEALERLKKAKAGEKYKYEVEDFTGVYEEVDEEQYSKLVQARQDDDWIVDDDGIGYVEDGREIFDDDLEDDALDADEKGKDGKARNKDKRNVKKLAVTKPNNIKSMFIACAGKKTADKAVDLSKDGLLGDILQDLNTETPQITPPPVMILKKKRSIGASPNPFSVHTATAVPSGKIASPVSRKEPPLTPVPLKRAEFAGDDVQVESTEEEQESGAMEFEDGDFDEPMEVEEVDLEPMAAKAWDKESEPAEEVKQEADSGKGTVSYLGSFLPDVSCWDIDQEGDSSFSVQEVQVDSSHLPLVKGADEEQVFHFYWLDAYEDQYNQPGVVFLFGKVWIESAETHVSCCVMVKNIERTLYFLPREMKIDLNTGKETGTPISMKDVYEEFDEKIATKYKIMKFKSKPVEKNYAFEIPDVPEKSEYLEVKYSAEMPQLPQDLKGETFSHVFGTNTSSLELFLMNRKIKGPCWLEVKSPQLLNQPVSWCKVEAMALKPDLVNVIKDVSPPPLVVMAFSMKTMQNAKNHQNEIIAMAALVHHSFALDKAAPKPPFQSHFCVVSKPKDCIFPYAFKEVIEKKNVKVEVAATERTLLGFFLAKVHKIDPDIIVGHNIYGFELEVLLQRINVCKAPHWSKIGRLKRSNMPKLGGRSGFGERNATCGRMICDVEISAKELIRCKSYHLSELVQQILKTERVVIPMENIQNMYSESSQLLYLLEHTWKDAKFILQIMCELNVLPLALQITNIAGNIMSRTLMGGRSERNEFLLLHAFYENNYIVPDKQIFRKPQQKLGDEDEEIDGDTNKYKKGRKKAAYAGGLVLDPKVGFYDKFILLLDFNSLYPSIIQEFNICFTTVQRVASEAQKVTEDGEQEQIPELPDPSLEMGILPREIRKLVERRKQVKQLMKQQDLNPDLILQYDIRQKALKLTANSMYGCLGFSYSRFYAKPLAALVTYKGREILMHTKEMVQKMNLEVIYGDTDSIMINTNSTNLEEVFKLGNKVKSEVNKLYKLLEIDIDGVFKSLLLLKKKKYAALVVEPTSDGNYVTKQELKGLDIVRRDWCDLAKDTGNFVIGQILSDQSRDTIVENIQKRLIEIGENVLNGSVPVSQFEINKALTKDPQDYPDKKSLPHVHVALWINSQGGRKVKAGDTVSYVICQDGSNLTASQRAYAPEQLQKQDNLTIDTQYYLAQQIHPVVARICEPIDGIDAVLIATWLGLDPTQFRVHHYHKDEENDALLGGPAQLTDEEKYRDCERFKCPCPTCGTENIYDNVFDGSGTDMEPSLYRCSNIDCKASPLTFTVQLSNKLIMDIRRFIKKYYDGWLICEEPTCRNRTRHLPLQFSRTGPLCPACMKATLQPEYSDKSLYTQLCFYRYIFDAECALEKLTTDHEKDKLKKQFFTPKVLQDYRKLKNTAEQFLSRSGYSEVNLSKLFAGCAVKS
property.measured: IC50
Answer with the number, then the unit.

# input Identify the measured IC50 of Nc1ncnc2c1ncn2[C@@H]1OC[C@](F)(COP(=O)(O)OP(=O)(O)OP(=O)(O)O)[C@H]1CO [Compound 38] for human DNA polymerase α (Homo sapiens, UniProt P09884).
# output 80 µM

====

test: in vitro; conditions: human
property.measured: CC50

Below: 4 molecules and their reported CC50.
• C=C1[C@H](COP(=O)(N[C@@H](C)C(=O)OC(C)C)Oc2ccccc2)[C@@H](O)C[C@@H]1n1cnc2c(=O)[nH]c(N)nc21 (some centres unmarked) [Compound 1-PD, reference compound] = > 20 µM
• CC(C)OC(=O)[C@H](C)NP(=O)(OC[C@@]1(F)CO[C@@H](n2cnc3c(N)ncnc32)[C@@H]1CO)Oc1ccccc1 (some centres unmarked) [Compound 39] = > 33 µM
• CC(C)OC(=O)[C@H](C)NP(=O)(OC[C@@]1(F)CO[C@@H](n2cnc3c(N)ncnc32)[C@@H]1O)Oc1ccccc1 (some centres unmarked) [Compound 24] = > 33 µM
• Nc1ncnc2c1ncn2[C@@H]1OC[C@](F)(CO)[C@H]1O [Compound 4] = > 33 µM

# input Query (molecule): Nc1ncnc2c1ncn2[C@@H]1OC[C@](F)(CO)[C@H]1CO [Compound 5] ; field requested: CC50
# output > 33 µM

====

biological target: human DNA polymerase β (Homo sapiens, UniProt P06746)
pIC50: −log10 of the molar value.
property.measured: pIC50

# input Query (molecule): `Nc1ncnc2c1ncn2[C@@H]1OC[C@](F)(COP(=O)(O)OP(=O)(O)OP(=O)(O)O)[C@H]1CO` ; field requested: pIC50
# output < 4.00
